# Test system: 521955-158-R2-J5-PDC complex spheroids, viability
# EXPERIMENT: Anticancer human tumor 521955-158-R2-J5-PDC patient-derived pancreatic carcinoma cell line growth inhibition [RAS]
# EXPERIMENTAL_CONDITIONS: second compound 0.000949 µM; first compound 10 µM; stronger effect = lower value
compounds and their reported viability, T/C
RESULT_TYPE: viability, T/C (%)

1. CC(Nc1ccc2c(c1)OCCn1cc(N3C(=O)OCC3C(F)F)nc1-2)C(N)=O (centres undefined) + CCn1c(-c2cccnc2C(C)OC)c2c3cc(ccc31)N1CCOC(CC(NC(=O)C(C(C)C)N(C)C(=O)C3(F)CCN(C(=O)C#CC(C)(C)N(C)C)CC3)C(=O)N3CCCC(N3)C(=O)OCC(C)(C)C2)C1 = 17.9
2. CC(Nc1ccc2c(c1)OCCn1cc(N3C(=O)OCC3C(F)F)nc1-2)C(N)=O (centres undefined) + CCn1c(-c2cc(N3CCN(C)CC3)cnc2C(C)OC)c2c3cc(ccc31)-c1csc(n1)CC(NC(=O)C1CC1C)C(=O)N1CCCC(N1)C(=O)OCC(C)(C)C2 = 11.4
3. Cc1nc(N2CCC3(CC2)COC(C)C3N)c(CO)nc1Sc1ccnc(N)c1Cl (centres undefined) + CCn1c(-c2cc(N3CCN(C)CC3)cnc2C(C)OC)c2c3cc(ccc31)-c1csc(n1)CC(NC(=O)C1CC1C)C(=O)N1CCCC(N1)C(=O)OCC(C)(C)C2 = 33.3
4. CC(C)NCC(C(=O)N1CCN(c2ncnc3c2C(C)CC3O)CC1)c1ccc(Cl)cc1 (centres undefined) + CCn1c(-c2cc(N3CCN(C)CC3)cnc2C(C)OC)c2c3cc(ccc31)-c1csc(n1)CC(NC(=O)C1CC1C)C(=O)N1CCCC(N1)C(=O)OCC(C)(C)C2 = 18.1

====

# System: 521955-158-R2-J5-PDC complex spheroids, viability
# EXPERIMENT: Anticancer human tumor 521955-158-R2-J5-PDC cell line growth inhibition [RAS];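 further: compound exposure lasted seven days before the viability read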
# EXPERIMENTAL_CONDITIONS: curve of first compound; second compound 0.3 µM
pIC50: −log10 of the molar value.
molecules and their reported pIC50
RESULT_TYPE: pIC50

1) O=C(c1ccc(F)c(F)c1Nc1ccc(I)cc1F)N1CC(O)([C@@H]2CCCCN2)C1 + CCn1c(-c2cccnc2C(C)OC)c2c3cc(ccc31)N1CCOC(CC(NC(=O)C(C(C)C)N(C)C(=O)C3(F)CCN(C(=O)C#CC(C)(C)N(C)C)CC3)C(=O)N3CCCC(N3)C(=O)OCC(C)(C)C2)C1 = 8.17
2) Cc1nc(N2CCC3(CC2)COC(C)C3N)c(CO)nc1Sc1ccnc(N)c1Cl (stereo not drawn) + CCn1c(-c2cccnc2C(C)OC)c2c3cc(ccc31)N1CCOC(CC(NC(=O)C(C(C)C)N(C)C(=O)C3(F)CCN(C(=O)C#CC(C)(C)N(C)C)CC3)C(=O)N3CCCC(N3)C(=O)OCC(C)(C)C2)C1 = 6.26
3) CC1(C)CCC(Nc2ncc(C(F)(F)F)c(-c3c[nH]c4c(P(C)(C)=O)c(C#N)ccc34)n2)CN1 (stereo not drawn) + CCn1c(-c2cccnc2C(C)OC)c2c3cc(ccc31)N1CCOC(CC(NC(=O)C(C(C)C)N(C)C(=O)C3(F)CCN(C(=O)C#CC(C)(C)N(C)C)CC3)C(=O)N3CCCC(N3)C(=O)OCC(C)(C)C2)C1 = 8.24
4) Nc1ccn(C2OC(CO)C(O)C2(F)F)c(=O)n1 (stereo not drawn) + CCn1c(-c2cccnc2C(C)OC)c2c3cc(ccc31)N1CCOC(CC(NC(=O)C(C(C)C)N(C)C(=O)C3(F)CCN(C(=O)C#CC(C)(C)N(C)C)CC3)C(=O)N3CCCC(N3)C(=O)OCC(C)(C)C2)C1 = 6.96

====

compounds and their reported IC50
# System: 521955-158-R2-J5-PDC complex spheroids, viability
# EXPERIMENT: Anticancer human tumor 521955-158-R2-J5-PDC cell line growth inhibition [RAS];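 further: compound exposure lasted seven days before the viability read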
# EXPERIMENTAL_CONDITIONS: curve of first compound; second compound 0.3 µM
RESULT_TYPE: IC50 (µM)

1) C=CC(=O)Nc1cc(Nc2nccc(-c3cn(C)c4ccccc34)n2)c(OC)cc1N(C)CCN(C)C + CCn1c(-c2cccnc2C(C)OC)c2c3cc(ccc31)N1CCOC(CC(NC(=O)C(C(C)C)N(C)C(=O)C3(F)CCN(C(=O)C#CC(C)(C)N(C)C)CC3)C(=O)N3CCCC(N3)C(=O)OCC(C)(C)C2)C1 = 0.176
2) CC(C)NCC(C(=O)N1CCN(c2ncnc3c2C(C)CC3O)CC1)c1ccc(Cl)cc1 (stereo not drawn) + CCn1c(-c2cccnc2C(C)OC)c2c3cc(ccc31)N1CCOC(CC(NC(=O)C(C(C)C)N(C)C(=O)C3(F)CCN(C(=O)C#CC(C)(C)N(C)C)CC3)C(=O)N3CCCC(N3)C(=O)OCC(C)(C)C2)C1 = 8.61
3) C[C@@H](NC(=O)c1ncnc(N)c1Cl)c1ncc(C(=O)Nc2cc(C(F)(F)F)c(Cl)cn2)s1 + CCn1c(-c2cccnc2C(C)OC)c2c3cc(ccc31)N1CCOC(CC(NC(=O)C(C(C)C)N(C)C(=O)C3(F)CCN(C(=O)C#CC(C)(C)N(C)C)CC3)C(=O)N3CCCC(N3)C(=O)OCC(C)(C)C2)C1 = 1.51
4) CC(C)n1nc(-c2ccc3oc(N)nc3c2)c2c(N)ncnc21 + CCn1c(-c2cccnc2C(C)OC)c2c3cc(ccc31)N1CCOC(CC(NC(=O)C(C(C)C)N(C)C(=O)C3(F)CCN(C(=O)C#CC(C)(C)N(C)C)CC3)C(=O)N3CCCC(N3)C(=O)OCC(C)(C)C2)C1 = 0.0135
5) CCC(CC)c1cc(NC2CCC(N)C2)n2nccc2n1 (stereo not drawn) + CCn1c(-c2cccnc2C(C)OC)c2c3cc(ccc31)N1CCOC(CC(NC(=O)C(C(C)C)N(C)C(=O)C3(F)CCN(C(=O)C#CC(C)(C)N(C)C)CC3)C(=O)N3CCCC(N3)C(=O)OCC(C)(C)C2)C1 = 1.7

====

compounds and their reported viability, T/C
# System: 521955-158-R2-J5-PDC complex spheroids, viability
# EXPERIMENT: Anticancer human tumor 521955-158-R2-J5-PDC cell line growth inhibition [RAS];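 further: compound exposure lasted seven days before the viability read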;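 on viability, T/C: spheroids also contain HUVEC endothelial cells and mesenchymal stem cells as stroma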
# EXPERIMENTAL_CONDITIONS: second compound 0.003 µM; first compound 0.003 µM; stronger effect = lower value
RESULT_TYPE: viability, T/C

1) CCc1c2c(nc3ccc(O)cc13)-c1cc3c(c(=O)n1C2)COC(=O)[C@]3(O)CC + CCn1c(-c2cccnc2C(C)OC)c2c3cc(ccc31)N1CCOC(CC(NC(=O)C(C(C)C)N(C)C(=O)C3(F)CCN(C(=O)C#CC(C)(C)N(C)C)CC3)C(=O)N3CCCC(N3)C(=O)OCC(C)(C)C2)C1 = 39.6%
2) CCc1c2c(nc3ccc(O)cc13)-c1cc3c(c(=O)n1C2)COC(=O)[C@]3(O)CC + CCn1c(-c2cc(N3CCN(C)CC3)cnc2C(C)OC)c2c3cc(ccc31)-c1csc(n1)CC(NC(=O)C1CC1C)C(=O)N1CCCC(N1)C(=O)OCC(C)(C)C2 = 26.8%
3) CC1(C)CCC(Nc2ncc(C(F)(F)F)c(-c3c[nH]c4c(P(C)(C)=O)c(C#N)ccc34)n2)CN1 (centres undefined) + CCn1c(-c2cc(N3CCN(C)CC3)cnc2C(C)OC)c2c3cc(ccc31)-c1csc(n1)CC(NC(=O)C1CC1C)C(=O)N1CCCC(N1)C(=O)OCC(C)(C)C2 = 26.5%
4) CC1(C)CCC(Nc2ncc(C(F)(F)F)c(-c3c[nH]c4c(P(C)(C)=O)c(C#N)ccc34)n2)CN1 (centres undefined) + CCn1c(-c2cccnc2C(C)OC)c2c3cc(ccc31)N1CCOC(CC(NC(=O)C(C(C)C)N(C)C(=O)C3(F)CCN(C(=O)C#CC(C)(C)N(C)C)CC3)C(=O)N3CCCC(N3)C(=O)OCC(C)(C)C2)C1 = 65.2%

====

# Tested on: 521955-158-R2-J5-PDC complex spheroids, viability
# EXPERIMENT: Anticancer human tumor 521955-158-R2-J5-PDC cell line growth inhibition [RAS]; active = viability on the fitted dose curve at most 10% of control; inactive = the rest;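 further: compound exposure lasted seven days before the viability read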
# EXPERIMENTAL_CONDITIONS: second compound 0.0316 µM; first compound 0.3 µM
# Source text: RAS pathway inhibitors in Combinations in Complex Spheroids A high-throughput screen of multi-cell type tumor spheroids was designed to identify active combinations of RAS pathway inhibitors and targeted small molecules. Complex spheroids include a stromal component modeled by human endothelial cells (HUVEC) and fibroblasts modeled by human mesenchymal stem cells (MSCs). […] Compounds. […] If the clinical Cmax for an agent had not been determined, the highest concentration tested was 10 microM. […]
Possible outcomes: True for active, False for inactive

1. CC1(C)CCC(Nc2ncc(C(F)(F)F)c(-c3c[nH]c4c(P(C)(C)=O)c(C#N)ccc34)n2)CN1 (centres undefined) + C=CC(=O)N1CCN(c2nc(OCC3CCCN3C)nc3c(F)c(-c4nc(N)cc(C)c4C(F)(F)F)c(Cl)cc23)C(C)C1 = False
2. CC1(C)CCC(Nc2ncc(C(F)(F)F)c(-c3c[nH]c4c(P(C)(C)=O)c(C#N)ccc34)n2)CN1 (centres undefined) + C#Cc1c(F)ccc2cc(O)cc(-c3ncc4c(N5CC6CCC(C5)N6)nc(OCC56CCCN5CC(F)C6)nc4c3F)c12 = False
3. CCc1c2c(nc3ccc(O)cc13)-c1cc3c(c(=O)n1C2)COC(=O)[C@]3(O)CC + C=CC(=O)N1CCN(c2nc(OCC3CCCN3C)nc3c(F)c(-c4nc(N)cc(C)c4C(F)(F)F)c(Cl)cc23)C(C)C1 = True
4. CCc1c2c(nc3ccc(O)cc13)-c1cc3c(c(=O)n1C2)COC(=O)[C@]3(O)CC + C#Cc1c(F)ccc2cc(O)cc(-c3ncc4c(N5CC6CCC(C5)N6)nc(OCC56CCCN5CC(F)C6)nc4c3F)c12 = False
